Measured SPOT peptide array binding signal intensity, listed per entry.
- measurement-target: AgBzz1-D1
- method: SPOT peptide array binding signal intensity (averaged, normalized) (arbitrary units (background-subtracted, floor 0; scale differs between SH3 domains)); higher = stronger binding of the SH3 domain to the peptide
endpoint-label: SPOT peptide array binding signal intensity

binder	result-operator	reported-measurement
LEFRAILFIPKRAPF	=	30.5
GKFIPSRPAPKPPSS	=	46
TPEIPPPLPPKIMVH	≤	0
LKHGWKPLRPIKLIS	=	31
LYEAMPPTLPHRDWK	≤	0
NNNKMRPHLPPLSSG	=	12
TKFRISLGLPVGAIM	=	100
